Where these numbers come from: patent US4760136A

Assay: Acute toxicity, intravenous (once), ddY mice
Type: in vivo
Conditions: mouse, in vivo, iv, formulated per Preparation Example
Excerpt: In Table 7 are shown acute toxicity values (LD50, mg/kg) in ddY mice in the case of intravenously administering (once) each of the compounds of this invention in the form of preparations shown in the Preparation Examples shown in Table 7.
Overview of recorded LD50 for various compounds

Reference set, count: 3
[
  {
    "COMPOUND": "C#CCCC(=O)Oc1c2cccc(O[C@@H]3O[C@H](C)[C@@H]4OC(C)(C)O[C@@H]4[C@H]3O[C@H]3O[C@H](C)[C@H](O)[C@H](OC)[C@H]3O)c2c2oc(=O)c3c(C)ccc4oc(=O)c1c2c43 [compound 201]",
    "LD50": "≥ 60 mg/kg"
  },
  {
    "COMPOUND": "COC1C(O)C(C)OC(OC2C(Oc3cccc4c(OC(=O)C(C)C)c5c(=O)oc6ccc(C)c7c(=O)oc(c34)c5c67)OC(C)C3OC(C)(C)OC32)C1O (stereo not shown) [compound 222]",
    "LD50": "≥ 80 mg/kg"
  },
  {
    "COMPOUND": "COC1C(O)C(C)OC(OC2C(Oc3cccc4c(OC(=O)CCNC=O)c5c(=O)oc6ccc(C)c7c(=O)oc(c34)c5c67)OC(C)C3OC(c4ccccc4Cl)OC32)C1O (stereo not shown) [Compound No. 58]",
    "LD50": "≥ 80 mg/kg"
  }
]

For record COC1C(O)C(C)OC(OC2C(Oc3cccc4c(OC(=O)C5CCCCC5NC(=O)C(F)(F)F)c5c(=O)oc6ccc(C)c7c(=O)oc(c34)c5c67)OC(C)C3OC(c4cccc(F)c4)OC32)C1O (single isomer, unassigned) [Compound No. 27] the listed LD50 is ≥ 30 mg/kg

For record COC1C(O)C(C)OC(OC2C(Oc3cccc4c(OC(=O)C(Cc5c[nH]c6ccccc56)NC(=O)OCc5ccccc5)c5c(=O)oc6ccc(C)c7c(=O)oc(c34)c5c67)OC(C)C3OC(c4cccc(C(F)(F)F)c4)OC32)C1O (stereo not shown) [compound 101] the listed LD50 is ≥ 80 mg/kg

For record COC1C(O)C(C)OC(OC2C(Oc3cccc4c(OC(=O)COC(C)=O)c5c(=O)oc6ccc(C)c7c(=O)oc(c34)c5c67)OC(C)C3OC(c4ccccc4)OC32)C1O (stereo not shown) [Compound No. 148] the listed LD50 is ≥ 40 mg/kg

For record CO[C@H]1[C@@H](O)[C@@H](C)O[C@H](O[C@H]2[C@H](Oc3cccc4c(OC(=O)C5CC5C)c5c(=O)oc6ccc(C)c7c(=O)oc(c34)c5c67)O[C@H](C)[C@@H]3OC(C)(C)O[C@@H]32)[C@@H]1O (stereo partly shown) [Compound No. 178] the listed LD50 is ≥ 80 mg/kg

For record C/C=C(\C)C(=O)Oc1c2cccc(OC3OC(C)C4OC(C)(C)OC4C3OC3OC(C)C(O)C(OC)C3O)c2c2oc(=O)c3c(C)ccc4oc(=O)c1c2c43 (stereo not shown) [Compound No. 173] the listed LD50 is ≥ 80 mg/kg

For record COC1C(O)C(C)OC(OC2C(Oc3cccc4c(OC(=O)CCNC(=O)C(F)(F)F)c5c(=O)oc6ccc(C)c7c(=O)oc(c34)c5c67)OC(C)C3OC4(CCCCC4)OC32)C1O (stereo not shown) [compound 132] the listed LD50 is ≥ 100 mg/kg

For record C=CCCC(=O)Oc1c2cccc(OC3OC(C)C4OC(C)(C)OC4C3OC3OC(C)C(O)C(OC)C3O)c2c2oc(=O)c3c(C)ccc4oc(=O)c1c2c43 (stereo not shown) [Compound No. 175] the listed LD50 is ≥ 80 mg/kg

For record COC1C(O)C(C)OC(OC2C(Oc3cccc4c(OC(=O)CCCCCCCNC(=O)C(F)(F)F)c5c(=O)oc6ccc(C)c7c(=O)oc(c34)c5c67)OC(C)C3OC(c4ccccc4)OC32)C1O (stereo not shown) [compound 77] the listed LD50 is ≥ 40 mg/kg

For record COC1C(O)C(C)OC(OC2C(Oc3cccc4c(OC(=O)CNC(=O)OCc5ccccc5)c5c(=O)oc6ccc(C)c7c(=O)oc(c34)c5c67)OC(C)C3OC(c4ccccc4)OC32)C1O (stereo not shown) [compound 71] the listed LD50 is ≥ 40 mg/kg

For record COC(=O)CCC(=O)Oc1c2cccc(O[C@@H]3O[C@H](C)[C@@H]4OC(C)(C)O[C@@H]4[C@H]3O[C@H]3O[C@H](C)[C@H](O)[C@H](OC)[C@H]3O)c2c2oc(=O)c3c(C)ccc4oc(=O)c1c2c43 [compound 202] the listed LD50 is ≥ 60 mg/kg

For record COC1C(O)C(C)OC(OC2C(Oc3cccc4c(OC(=O)C(CNC(=O)OCc5ccccc5)C(C)C)c5c(=O)oc6ccc(C)c7c(=O)oc(c34)c5c67)OC(C)C3OC(c4ccccc4)OC32)C1O (stereo not shown) [compound 70] the listed LD50 is ≥ 40 mg/kg
